# System: Escherichia coli TOP10
# measurement description: shrunken log2 fold change of peptide-encoding DNA abundance (4.5 h post-induction vs induction); higher = less antimicrobial activity (less host growth inhibition)
# measurement parameters: time post-induction: 4.5 h; library: site-saturation at positions 5, 18, 19, 20
This section presents sequences with their documented shrunken log2 fold change values.

In the examples that follow, each entry is paired with its recorded shrunken log2 fold change.
RRIRERPPRLPRPRPRPHKNPRP :: -0.206
RRIRPRPPRLPRPRPRPMMEPRP :: 0.0824
RRIRLRPPRLPRPRPRPGFMPRP :: -0.382
RRIRDRPPRLPRPRPRPRNIPRP :: -0.0463
RRIRIRPPRLPRPRPRPPETPRP :: 0.246

Ask: Find the recorded shrunken log2 fold change belonging to "RRIRHRPPRLPRPRPRPVNLPRP" and report it.
Result: -0.0241

Ask: Find the recorded shrunken log2 fold change belonging to "RRIRVRPPRLPRPRPRPQRYPRP" and report it.
Result: -0.883

Ask: Find the recorded shrunken log2 fold change belonging to "RRIRVRPPRLPRPRPRPIIFPRP" and report it.
Result: -0.286

Ask: Find the recorded shrunken log2 fold change belonging to "RRIRLRPPRLPRPRPRPILMPRP" and report it.
Result: 0.0581

Ask: Find the recorded shrunken log2 fold change belonging to "RRIRERPPRLPRPRPRPGADPRP" and report it.
Result: 0.146

Ask: Find the recorded shrunken log2 fold change belonging to "RRIRDRPPRLPRPRPRPYYAPRP" and report it.
Result: -0.201

Ask: Find the recorded shrunken log2 fold change belonging to "RRIRERPPRLPRPRPRPMFRPRP" and report it.
Result: -0.737

Ask: Find the recorded shrunken log2 fold change belonging to "RRIRQRPPRLPRPRPRPQSWPRP" and report it.
Result: 0.0219

Ask: Find the recorded shrunken log2 fold change belonging to "RRIRARPPRLPRPRPRPKCKPRP" and report it.
Result: 0.278

Ask: Find the recorded shrunken log2 fold change belonging to "RRIRSRPPRLPRPRPRPIMYPRP" and report it.
Result: -0.42

Ask: Find the recorded shrunken log2 fold change belonging to "RRIRYRPPRLPRPRPRPEMCPRP" and report it.
Result: -0.238

Ask: Find the recorded shrunken log2 fold change belonging to "RRIRQRPPRLPRPRPRPAWGPRP" and report it.
Result: 0.34

Ask: Find the recorded shrunken log2 fold change belonging to "RRIRSRPPRLPRPRPRPVFCPRP" and report it.
Result: -0.024

Ask: Find the recorded shrunken log2 fold change belonging to "RRIRDRPPRLPRPRPRPDRWPRP" and report it.
Result: 0.366

====

# System: Escherichia coli TOP10
# measurement description: shrunken log2 fold change of peptide-encoding DNA abundance (4.5 h post-induction vs induction); higher = less antimicrobial activity (less host growth inhibition)
# measurement parameters: time post-induction: 4.5 h; library: site-saturation at positions 5, 18, 19, 20
outcome measure: shrunken log2 fold change
// return just the number, without any unit appended

In the examples that follow, each entry is paired with its recorded shrunken log2 fold change.
RRIRYRPPRLPRPRPRPRTKPRP :: 0.011
RRIRSRPPRLPRPRPRPRFWPRP :: 0.269

Ask: Find the recorded shrunken log2 fold change belonging to "RRIRRRPPRLPRPRPRPFSHPRP" and report it.
Result: -0.0121

Ask: Find the recorded shrunken log2 fold change belonging to "RRIRQRPPRLPRPRPRPEHFPRP" and report it.
Result: 0.0746

====

This section presents sequences with their documented shrunken log2 fold change values.
# Test system: Escherichia coli TOP10
# measurement description: shrunken log2 fold change of peptide-encoding DNA abundance (4.5 h post-induction vs induction); higher = less antimicrobial activity (less host growth inhibition)
# measurement parameters: time post-induction: 4.5 h; library: site-saturation at positions 5, 18, 19, 20
// return just the number, without any unit appended

RRIRKRPPRLPRPRPRPPQTPRP :: 0.559

Ask: Find the recorded shrunken log2 fold change belonging to "RRIRKRPPRLPRPRPRPNIEPRP" and report it.
Result: 0.115

Ask: Find the recorded shrunken log2 fold change belonging to "RRIRSRPPRLPRPRPRPRMAPRP" and report it.
Result: 1.31

Ask: Find the recorded shrunken log2 fold change belonging to "RRIRVRPPRLPRPRPRPYVAPRP" and report it.
Result: -0.643

Ask: Find the recorded shrunken log2 fold change belonging to "RRIRARPPRLPRPRPRPAVPPRP" and report it.
Result: 0.848

Ask: Find the recorded shrunken log2 fold change belonging to "RRIRPRPPRLPRPRPRPQGGPRP" and report it.
Result: 0.332

Ask: Find the recorded shrunken log2 fold change belonging to "RRIRMRPPRLPRPRPRPGINPRP" and report it.
Result: -0.319

Ask: Find the recorded shrunken log2 fold change belonging to "RRIRMRPPRLPRPRPRPTPIPRP" and report it.
Result: 0.255

Ask: Find the recorded shrunken log2 fold change belonging to "RRIRCRPPRLPRPRPRPHLLPRP" and report it.
Result: -0.375

Ask: Find the recorded shrunken log2 fold change belonging to "RRIRGRPPRLPRPRPRPIAPPRP" and report it.
Result: 1.29

Ask: Find the recorded shrunken log2 fold change belonging to "RRIRVRPPRLPRPRPRPPKKPRP" and report it.
Result: 0.167

Ask: Find the recorded shrunken log2 fold change belonging to "RRIRCRPPRLPRPRPRPFYWPRP" and report it.
Result: 0.0228

Ask: Find the recorded shrunken log2 fold change belonging to "RRIRLRPPRLPRPRPRPFKLPRP" and report it.
Result: -0.294

Ask: Find the recorded shrunken log2 fold change belonging to "RRIRSRPPRLPRPRPRPRWIPRP" and report it.
Result: 0.00261

====

# Test system: Escherichia coli TOP10
# measurement description: shrunken log2 fold change of peptide-encoding DNA abundance (4.5 h post-induction vs induction); higher = less antimicrobial activity (less host growth inhibition)
# measurement parameters: time post-induction: 4.5 h; library: site-saturation at positions 5, 18, 19, 20
shrunken log2 fold change of 0.009 or higher: 1. Under 0.009: -1.

These solved cases illustrate the format of a correct answer.
RRIRCRPPRLPRPRPRPMEVPRP :: 1
RRIRYRPPRLPRPRPRPWHLPRP :: -1
RRIRSRPPRLPRPRPRPRMVPRP :: 1

// next entry
Ask: Assess whether reported shrunken log2 fold change for "RRIRTRPPRLPRPRPRPCQAPRP" sits at 0.009 or higher.
Result: -1

====

# Test system: Escherichia coli TOP10
# measurement description: shrunken log2 fold change of peptide-encoding DNA abundance (4.5 h post-induction vs induction); higher = less antimicrobial activity (less host growth inhibition)
# measurement parameters: time post-induction: 4.5 h; library: site-saturation at positions 5, 18, 19, 20
outcome measure: shrunken log2 fold change
// return just the number, without any unit appended

RRIRYRPPRLPRPRPRPTECPRP :: -0.0134

Ask: Find the recorded shrunken log2 fold change belonging to "RRIRCRPPRLPRPRPRPNVPPRP" and report it.
Result: -0.154

Ask: Find the recorded shrunken log2 fold change belonging to "RRIRMRPPRLPRPRPRPCYRPRP" and report it.
Result: 0.035

====

# Tested on: Escherichia coli TOP10
# measurement description: shrunken log2 fold change of peptide-encoding DNA abundance (4.5 h post-induction vs induction); higher = less antimicrobial activity (less host growth inhibition)
# measurement parameters: time post-induction: 4.5 h; library: site-saturation at positions 5, 18, 19, 20
outcome measure: shrunken log2 fold change

Ask: Checklist item: shrunken log2 fold change tested on Escherichia coli TOP10, entry "RRIRFRPPRLPRPRPRPAVCPRP" , value?
Result: 0.925

Ask: Checklist item: shrunken log2 fold change tested on Escherichia coli TOP10, entry "RRIRDRPPRLPRPRPRPAMWPRP" , value?
Result: 1.24

Ask: Checklist item: shrunken log2 fold change tested on Escherichia coli TOP10, entry "RRIRYRPPRLPRPRPRPNLVPRP" , value?
Result: -0.0754

====

# Test system: Escherichia coli TOP10
# measurement description: shrunken log2 fold change of peptide-encoding DNA abundance (4.5 h post-induction vs induction); higher = less antimicrobial activity (less host growth inhibition)
# measurement parameters: time post-induction: 4.5 h; library: site-saturation at positions 5, 18, 19, 20
outcome measure: shrunken log2 fold change

In the examples that follow, each entry is paired with its recorded shrunken log2 fold change.
RRIRTRPPRLPRPRPRPTWVPRP :: 0.149
RRIRMRPPRLPRPRPRPDECPRP :: 2.8

Ask: Find the recorded shrunken log2 fold change belonging to "RRIRGRPPRLPRPRPRPGAMPRP" and report it.
Result: 1.25

====

# Tested on: Escherichia coli TOP10;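 also: peptides expressed intracellularly from a pBAD plasmid library in pooled LB shake-flask culture, induced with 0.3% L-arabinose, DNA abundance read by NGS, three biological replicates, DESeq2 with apeglm shrinkage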
# measurement description: shrunken log2 fold change of peptide-encoding DNA abundance (4.5 h post-induction vs induction); higher = less antimicrobial activity (less host growth inhibition)
# measurement parameters: time post-induction: 4.5 h; library: site-saturation at positions 5, 18, 19, 20
This section presents sequences with their documented shrunken log2 fold change values.
// return just the number, without any unit appended

In the examples that follow, each entry is paired with its recorded shrunken log2 fold change.
RRIRRRPPRLPRPRPRPCNRPRP :: -0.509
RRIRPRPPRLPRPRPRPRAIPRP :: 0.503
RRIRIRPPRLPRPRPRPSCNPRP :: -0.576
RRIRKRPPRLPRPRPRPNQYPRP :: -0.0702

Ask: Find the recorded shrunken log2 fold change belonging to "RRIRIRPPRLPRPRPRPNWDPRP" and report it.
Result: -0.0401

Ask: Find the recorded shrunken log2 fold change belonging to "RRIRFRPPRLPRPRPRPPVAPRP" and report it.
Result: 0.987

Ask: Find the recorded shrunken log2 fold change belonging to "RRIRYRPPRLPRPRPRPTSVPRP" and report it.
Result: -0.395

Ask: Find the recorded shrunken log2 fold change belonging to "RRIRFRPPRLPRPRPRPWQMPRP" and report it.
Result: 0.053

Ask: Find the recorded shrunken log2 fold change belonging to "RRIRWRPPRLPRPRPRPADFPRP" and report it.
Result: -0.0275

Ask: Find the recorded shrunken log2 fold change belonging to "RRIRGRPPRLPRPRPRPHDKPRP" and report it.
Result: 0.475

Ask: Find the recorded shrunken log2 fold change belonging to "RRIRARPPRLPRPRPRPGLHPRP" and report it.
Result: 0.275
